# testedTarget: human transferrin (hTf) (Homo sapiens)
# Construct: purchased Sigma
# Sequence (P02787 20-698): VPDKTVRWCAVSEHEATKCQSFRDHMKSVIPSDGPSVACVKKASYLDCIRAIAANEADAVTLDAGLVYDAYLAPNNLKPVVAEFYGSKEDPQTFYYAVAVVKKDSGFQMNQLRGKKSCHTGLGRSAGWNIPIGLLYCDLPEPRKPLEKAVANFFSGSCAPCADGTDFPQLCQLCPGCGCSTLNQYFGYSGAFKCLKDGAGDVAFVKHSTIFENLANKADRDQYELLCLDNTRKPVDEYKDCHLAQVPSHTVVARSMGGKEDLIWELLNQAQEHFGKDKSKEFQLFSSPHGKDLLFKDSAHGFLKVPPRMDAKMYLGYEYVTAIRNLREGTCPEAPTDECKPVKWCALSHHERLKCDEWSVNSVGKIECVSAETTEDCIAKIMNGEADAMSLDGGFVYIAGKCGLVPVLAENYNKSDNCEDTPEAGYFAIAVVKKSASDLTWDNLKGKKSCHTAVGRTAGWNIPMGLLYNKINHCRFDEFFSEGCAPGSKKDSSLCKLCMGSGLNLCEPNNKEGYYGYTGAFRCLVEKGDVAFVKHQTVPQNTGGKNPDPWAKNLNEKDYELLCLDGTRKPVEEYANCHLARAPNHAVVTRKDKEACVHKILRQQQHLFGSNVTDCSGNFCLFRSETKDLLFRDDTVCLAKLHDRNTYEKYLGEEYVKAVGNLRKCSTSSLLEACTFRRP
# experimentalProtocol: First M. catarrhalis TbpB N-lobe overlapping peptide library screened with β-galactosidase conjugated hTf (colorimetric)
# Format: binding
# settings: 15 mer peptides with 4-amino acid overlap
attributeMeasured: binding to β-gal-hTf, intensity of colored product

Solved entries:
>  <substance>
mgygmalskinlhnr (MGYGMALSKINLHNR; M. catarrhalis) [Peptide 65]

>  <testedTarget>
human transferrin (hTf) (Homo sapiens)

>  <result>
moderately positive

$$$$
>  <substance>
fmtdvanrrnrfsev (FMTDVANRRNRFSEV; M. catarrhalis) [Peptide 83]

>  <testedTarget>
human transferrin (hTf) (Homo sapiens)

>  <result>
moderately positive

$$$$
>  <substance>
fsnlqdrhkgnvtkt (FSNLQDRHKGNVTKT; M. catarrhalis) [Peptide 90]

>  <testedTarget>
human transferrin (hTf) (Homo sapiens)

>  <result>
strongly positive

$$$$
>  <substance>
danihgnrfrgsata (DANIHGNRFRGSATA; M. catarrhalis) [Peptide 92]

>  <testedTarget>
human transferrin (hTf) (Homo sapiens)

>  <result>
strongly positive

$$$$

Value lookup for binding to β-gal-hTf, intensity of colored product; key = gpvggvfyngtttak (GPVGGVFYNGTTTAK; M. catarrhalis) [Peptide 80]
strongly positive
